Data provenance is PubChem BioAssay (NCI).

Below, each of the molecules is paired with its reported growth value.
Tested on: SK-MEL-28 melanoma
Test Description: NCI-60 one-dose screen, 48 h (100 = growth as untreated, 0 = no growth, -100 = all killed)
Assay Context: 10 µM
About 83,000 compounds went through this panel and 20% of them were active in at least one assay; those are over-represented in the sample as a whole.
Measure: growth (%)

INSERT INTO results (chemical_structure, numeric_readout) VALUES
  ('COc1ccc(-c2c(N)c(=O)n(C)c3ccccc23)cc1', 86.5),
  ('Cc1cc(C)cc(Oc2cccc(-c3c(C)nnn3C3CCN(CCN(C)C)CC3)n2)c1', 19),
  ('CCCn1c(=O)c2[nH]c(-c3ccc(OCc4nc5ccc(C#N)cc5[nH]4)cc3)nc2n(CCC)c1=O', 90.8),
  ('CC(=O)c1ccc(NC(=O)NCn2c(=O)[nH]c3ccccc3c2=O)cc1', 103),
  ('O=C(CSc1nnc(-c2c[nH]c3ccccc23)n1-c1ccccc1)c1ccc(Cl)cc1', 68.3),
  ('CC(=O)NNc1ccc2nnc(-c3ccc(Br)cc3)n2n1', 106),
  ('Cc1ccc(/C=C(\C#N)n2nnc3c(F)cccc32)cc1', 28.8),
  ('CCCCSc1nc(Nc2ccc(/C(C)=N/NC(N)=S)cc2)c(C#N)c(-c2ccc(F)cc2)n1', 64),
  ('CCN1CCN(Cc2ccc(NC(=O)c3cccc(-n4cc(-c5ccc(NC(C)=O)nc5)nn4)c3)cc2C(F)(F)F)CC1', 53.3),
  ('Cc1ccc(-c2cc(C(=O)N=Nc3c(O)[nH]c4ccc(Br)cc34)c3ccccc3n2)cc1', 84.4);

====

Listed next: entries and their corresponding growth.
Tested on: MCF7 breast
Test Description: NCI-60 one-dose screen, 48 h (100 = growth as untreated, 0 = no growth, -100 = all killed)
Assay Context: 10 µM
About 83,000 compounds went through this panel and 20% of them were active in at least one assay; those are over-represented in the sample as a whole.
Measure: growth (%)

INSERT INTO assay_data (compound, measure, unit, numeric_readout) VALUES
  ('CN1CCN(c2ccc(Nc3nc(NCCCNC(=O)C4CCCCC4)c4sccc4n3)cc2)CC1', 'growth', '%', 23.1),
  ('CC1(c2ccccc2)NC(=O)N(CC(=O)Nc2ccc(C(=O)/C=C/c3ccc(Br)cc3)cc2)C1=O (centres undefined)', 'growth', '%', -42.6),
  ('N[C@@H](CSSC[C@H](N)C(=O)Nc1ccc(OCC2CCCC2)cc1)C(=O)Nc1ccc(OCC2CCCC2)cc1', 'growth', '%', -73),
  ('CC(=O)Oc1ccccc1C(=O)Oc1ccc(C(=O)/C=C/c2ccncc2)cc1', 'growth', '%', 0.657),
  ('CC1(c2ccccc2)NC(=O)N(CC(=O)Nc2ccc(C(=O)/C=C/C=C/c3ccccc3)cc2)C1=O (centres undefined)', 'growth', '%', 3.54),
  ('COc1cc(/C=C/C(=O)c2ccc(F)cc2)ccc1Oc1nc(Nc2ccc(F)cc2)nc(N(C)C)n1', 'growth', '%', 16.6),
  ('CN1CCN(c2ccc(Nc3nc(NCCNC(=O)c4ccc(C(F)(F)F)cc4)c4sccc4n3)cc2)CC1', 'growth', '%', -44.4),
  ('OCCNc1oc(-c2ccccc2)nc1[P+](c1ccccc1)(c1ccccc1)c1ccccc1', 'growth', '%', 2.37),
  ('COc1ccc(-c2cc(C(=O)N=Nc3c(O)[nH]c4ccc(F)cc34)c3ccccc3n2)cc1', 'growth', '%', 23.6);
